Target: SARS-CoV-2 spike RBD (WT) (Severe acute respiratory syndrome …, UniProt P0DTC2)
Assay: ELISA
Design: unit not given here
// classify(record): look up binding score in ranges low: < 80; medium: ≥ 80 and < 400; high: ≥ 400

# example entries with known answers
binder: C2692 (antibody, V domains shown) VH: EVQLVESGGGLVQPGRSLRLSCAASGFTFDDYAMHWVRQAPGKGLEWVSGISWNSGSIGYADSVKGRFTISRDNAKNSLYLQMNSLRAEDTALYYCAKDIDTMVQGGEFYFDYWGQGTLVTVSS VL: QSALTQPASVSGSPGQSITISCTGTSSDVGGYNYVSWYQQHPGKAPKLMIYDVSNRPSGVSNRFSGSKSGNTASLTISGLQAEDEADYYCSSYTSSSTVVFGGGTKLTVL
category: high
--
binder: C2739 (antibody, V domains shown) VH: EVQLVESGGGLVQPGGSLRLSCAASGFTFSSYWMSWVRQAPGKGLEWVANIKKDGSEKYYVDSVKGRFTISRDNDKNSLYLQMNSLRAEDTAVYYCARKKYYYGDFDYWGQGTLVTVSS VL: NFMLTQPHSVSESPGKTVTISCTRSSGSIASNYVQWYQQRPGSSPTTVIYEDNQRPSGVPDRFSGSIDSSSNSASLTISGLKTEDEADYYCQSYDSIIREVFGGGTKLTVL
category: low
--
binder: D021 (antibody, V domains shown) VH: QVQLVESGGGVVQPGRSLRLSCAASGFTFSSYGMHWVRQAPGKGLEWVAVISYDGSNKYYADSVKGRFTISRDNSKNTLYLQMNSLRAEDTAVYYCAKAGQYGDYTHSGDYWGQGTLVTVSS VL: DIQMTQSPSSLSASVGDRVTITCQASQDISNYLNWYQQKPGKAPKLLIYDASNLETGVPSRFSGSGSGTDFTFTISSLQPEDIATYYCQQYDNLPIAFGQGTRLEIK
category: high
--
binder: D135 (antibody, V domains shown) VH: EVQLVESGGGLIQPGGSLRLSCAASGFTVSSNYMTWVRQAPGKGLEWVSLIYSGGSTYYTDSVKGRFTISRDNSKNTLYLQMNSLRAEDTAVYYCARLLITMVRGVISSGLDYWGQGTLVTVSS VL: EIVLTQSPGTLSLSPGERATLSCRASQSVSSSYLAWYQQRPGQPPRLLIYGASSRATGIPDRFSDSGSGTDFTLTISRLEPEDFAVYYCQQYGSSPPITFGQGTRLDIK
category: high
--
binder: D001 (antibody, V domains shown) VH: QVQLVESGGGVVQPGRSLRLSCAASGFTFSSYGMHWVRQAPGKGLEWVAVISYDGSNKYYVDSVKGRFTISRDNSKNTLYLQMNSLRAEDTAVYYCAKEGGSYYGGGGYFDYWGQGTLVTVSS VL: DIQMTQSPSSLSASVGDRVTITCQASQDISNYLHWYQQKPGKAPKLLIYDASNLETGVPSRFSGSGSGTDFTLTISSLQPEDIATYYCQQYDNLPYTFGQGTKLEIK
category: low

QUERY: Just checking, what class would you give C2732 (antibody, V domains shown) VH: EVQLVESGGGLVQPGRSLRLSCAASGFTFDDYAMHWVRQAPGKGLEWVSGISWNSGSIGYADSVKGRFTISRDNAKNSLYLQMNSLRAEDTALYYCAKDIGRIAEGYGMDVWGQGTTVTVSS VL: QSALTQPASVSESPGQSITISCTGTSSDIGGYNYVSWYQQHPGKAPKLMIYEVSNRPSGVSNRFSGSKSGNTASLTISGLQAEDEADYYCSSYTSSSTVVFGGGTKLTVL here?
RESULT: medium

QUERY: Just checking, what class would you give D058 (antibody, V domains shown) VH: QVQLQESGPGLVKPSETLSLTCTVSGYSISSGYYWGWIRQPPGKGLEWIGSIYHSGSTYYNPSLKSRVTISVDTSKNQFSLKLSSVTAADTAVYYCARDFPLTLYGVLISDAFDIWGQGTMVTVSS VL: SYELTQPPSVSVSPGQTARITCSADALPKQYAYWYQQKPGQAPVLVIYKDSERPSGIPERFSGSSSGTTVTLTISGVQAEDEADYYCQSADSSGKVFGGGTKLTVL here?
RESULT: medium

QUERY: Just checking, what class would you give D145 (antibody, V domains shown) VH: QVQLVESGGGVVQPGRSLRLSCAASGFTFSSYGMHWVRQAPGKGLEWVAVISYDGSNKYYADSVKGRFTISRDNSKNTLYLQMNSLRAEDTAVYYCAKGSGPYYYDSSGYYSLFDYWGQGTLVTVSS VL: EIVMTQSPATLSVSPGERATLSCRASQSISSNLAWYQQKPGQAPRLLIDGASTRATGIPARFSGSGSGTEFTLTISSLQSEDFAVYYCQQYNNWPTFGQGTKLEIK here?
RESULT: low

QUERY: Just checking, what class would you give C2695 (antibody, V domains shown) VH: EVQLVESGGGLAQPGRSLRLSCAASGFKFDDYAMHWVRQAPGQGLEWVSGIDWNSGIIGYADSVMGRFTISRDNAKKSLYLQMNSLRAEDTALYYCAKSGGFGEFKWFDPWGQGTLVTVSS VL: EIVMTQSPVTLSVSPGERATLSCRASQSVSGNLAWYQQKPGQAPRLLIYGASTRATGFPARFSGSGSGTEFTLTISRLQSEDFAVYYCQQYNKWPRTFGQGTKLEIK here?
RESULT: low

Where do these numbers come from? They come from paper PMC9876794.
